test system: Trypanosoma brucei; experiment: Trypanosoma brucei 72 hour study; type: functional, organism-based; design: scale not given: in the data most compounds retested in dose-response had high values; conditions: 30 µM; 30.03 µM
Screen size: about 66,000 compounds; about 960 (1.5%) showed an effect of 50% or more. The entries come from a sample that favours strong results as a whole.
Label key: YES means Percent Effect under -20%; NO means Percent Effect of -20% or more.

// below: answered molecules
Molecule | Label
CCS(=O)(=O)N1Cc2ccccc2CC1C(=O)OCc1cc(C)no1 (stereo unspecified) | YES
O=C(CCCn1ccnc1)NC1CCCN(c2ccccc2Cl)C1 (stereo unspecified) | YES
Cc1cc(COC(=O)[C@@H]2Cc3ccccc3CN2S(C)(=O)=O)no1 | NO
O=C(CN1C(=O)CCC1=O)NCCc1nc(C2CC2)cc(C(F)(F)F)n1 | NO
Oc1ccc(-c2c(-c3ccccc3)ncn2C[C@H]2CCCN2)cc1 | NO

Moving on to the next molecule.
## Input State whether -20% exceeds Percent Effect recorded for O=c1c(CN2CCOCC2)coc(O)c1CN1CCOCC1 .
## Output NO

* * *

system: Trypanosoma brucei; test: Trypanosoma brucei 72 hour study; format: functional, organism-based; set-up: scale not given: in the data most compounds retested in dose-response had high values; settings: 30 µM; 30.03 µM
The whole screen tested about 66,000 compounds, of which about 960 (1.5%) showed an effect of 50% or more. Many of the other results were omitted from the sample, so strong results are more common in it than they were.
# reported Percent Effect; entries follow
Write the number in % without appending the unit.

Use the examples below as a reference point.
Compound | Percent Effect / %
c1nc2n(c1CN1CCOCC1)CCN(C1CCOC1)CC2 (centres undefined) | -183.8
COc1cc(C)c(-c2ccc(F)c3c2OC(CN)C3)cc1C (centres undefined) | -14.37
CCn1nc(C)c2ccn(CC(=O)NCCCOC)c(=O)c21 | 9.008
CCC(C)N(Cc1ccsc1)C(=O)c1ccc2[nH]nnc2c1 (centres undefined) | 2.149
Cc1nc(CN2CC3(CCN(c4cnccn4)C3)CC2=O)cs1.O=C(O)C(F)(F)F (centres undefined) | -45.32

## Input What measured Percent Effect is associated with O=C(O)C(F)(F)F.O=C(c1ncccn1)N1C[C@H]2CCC[C@@]2(COc2ccccn2)C1 on Trypanosoma brucei?
## Output 19.9

* * *

test system: Trypanosoma brucei; experiment: Trypanosoma brucei 72 hour study; assay type: functional, organism-based; parameters: scale not given: in the data most compounds retested in dose-response had high values; conditions: 30.3 µM; […]
The campaign covered roughly 66,000 compounds. About 960 (1.5%) showed an effect of 50% or more. The list comes from a sample in which strong results are over-represented; it also holds close analogues and randomly drawn compounds.
Reported endpoint: Percent Effect

Compound | Tested on | Result
CC(C)(C)CC(=O)NCCn1nc(C2CCNC2)c2cccnc21.Cl (stereo unspecified) | Trypanosoma brucei | -18.41%
CC(C)n1cnnc1CCNCc1cn(CCC(N)=O)c2ccccc12 | Trypanosoma brucei | -18.24%
OC1(CN2CCCCC2)CCN(c2ccc(C(F)(F)F)cn2)C1 (stereo unspecified) | Trypanosoma brucei | 3.051%
O=C(O)C(F)(F)F.c1cnc(N2CCC3(CC2)CN(CC2CC2)c2ccccc23)nc1 | Trypanosoma brucei | 99.63%

## Input Item under review: Cc1ccc(-n2cc(CN3CCOCC3)c(-c3cccc(C)c3)n2)cc1 . Reported Percent Effect?
## Output 3.807%

## Input Recorded Percent Effect of CNC(=O)CN1CCCC12CCN(C(=O)c1cccc(F)c1)CC2.O=C(O)C(F)(F)F , please.
## Output -1.054%

## Input Quick one: Percent Effect for CCCNC(=O)c1cc(-c2cnc(N3CCCC3)nc2)cn1C ?
## Output -994.8%

## Input Requested read-out: Percent Effect. Entry: O=C1NCC2(CCCN(Cc3ccccc3F)C2)Oc2ccccc21 (stereo unspecified)
## Output -8.26%

## Input Could you share which Percent Effect value was measured for c1ccc2c(c1)CCN(c1nc(N3CCOCC3)c3nn[nH]c3n1)C2 ?
## Output -17%

* * *

test system: Trypanosoma brucei; experiment: Trypanosoma brucei 72 hour study; assay type: functional, organism-based; parameters: scale not given: in the data most compounds retested in dose-response had high values; settings: 30.3 µM; […]
The whole screen tested about 66,000 compounds, of which about 960 (1.5%) showed an effect of 50% or more. The full list was thinned out, with strong results kept by preference.
Reported endpoint: Percent Effect (%)
Give just the number in %; leave the unit off.

Compound | Tested on | Percent Effect / %
CN(C)CCN(Cc1ccccn1)Cc1ccnn1C1CCCCO1.O=C(O)CC(O)(CC(=O)O)C(=O)O (configuration not stated) | Trypanosoma brucei | -14.13
CN1CCN(c2ccc(F)cc2NC(=O)NCc2ccon2)CC1 | Trypanosoma brucei | -94.37
CCOC(=O)C1(Cc2ccccc2)CCCN(Cc2nccn2CC)C1 (configuration not stated) | Trypanosoma brucei | 95.74
CCn1nc(C)c2nc(C)nc(NCCc3ccccc3)c21 | Trypanosoma brucei | 92.15
CN(C)CCO[C@H]1CN(CC2CC2)[C@@H]2CCCO[C@H]12.O=C(O)C(F)(F)F.O=C(O)C(F)(F)F | Trypanosoma brucei | 15.45

## Input May I ask what Percent Effect has been recorded for COc1ncccc1CNCc1c(C(C)C)nn(C)c1N(C)C ?
## Output 0.2022

## Input Percent Effect lookup needed for CCCn1c(NCCc2ccccc2)nc2c(C)nn(C)c2c1=O , thanks.
## Output 99.9

## Input Query (compound): N#Cc1c(Cl)nsc1N1CCN(CC2CCCCC2)CC1 ; field requested: Percent Effect
## Output 100.2

## Input State the recorded Percent Effect for this entry: CCCc1nc(NCCc2ccccc2)c2c(n1)c(C)nn2CC
## Output 99.68

## Input I'd like to know its Percent Effect. The compound in question is O=C(CN1CC(c2nc(Cc3ccccc3)no2)C1)NCC1CCCO1.O=C(O)C(=O)O (configuration not stated)
## Output 6.981

* * *

tested on: Trypanosoma brucei; assay: Trypanosoma brucei 72 hour study; format: functional, organism-based; parameters: scale not given: in the data most compounds retested in dose-response had high values; conditions: 30.3 µM; […]
About 960 (1.5%) of roughly 66,000 compounds showed an effect of 50% or more. What follows is part of a selection rich in strong results, with near analogues and random picks from the rest.
Threshold check on Percent Effect: at or above 10% gives 1, strictly below gives 0.

Molecule | Label
NCCn1nc(C2CCN(Cc3ccccc3Cl)C2)c2nccnc21 (centres undefined) | 1
COC(=O)c1ccc(CNCc2ccn(C)n2)cc1 | 0
Cl.Nc1ccc(-c2cnc(C3CCCN3)cn2)cn1 (centres undefined) | 1
Cc1ccsc1CN1CCC(n2cc(C(O)c3ccccc3)nn2)CC1 (centres undefined) | 0
CCOc1c(F)cccc1C(=O)N(c1cccnc1)C(C)C | 1

## Input Given CCC(=O)N1CCC2(CC1)C(c1cccnc1)CC(=O)N2CCOC.O=C(O)C(F)(F)F (centres undefined) , state whether its Percent Effect is at least 10%.
## Output 0

## Input Percent Effect >= 10% for Cc1ccc(CN2C[C@@H]3[C@@H](C(=O)NCC(C)C)CCS(=O)(=O)[C@@H]3C2)cc1.O=C(O)C(F)(F)F ?
## Output 0

## Input For this molecule, is measured Percent Effect 10% or higher? COc1ccc(NC(=O)NCC(C)N2CCc3ccccc32)cc1 (centres undefined)
## Output 0

## Input Is Percent Effect for CC(CNC(=O)Nc1ccc(C#N)cc1)N1CCc2ccccc21 (centres undefined) at or above 10%?
## Output 1

* * *

test system: Trypanosoma brucei; assay: Trypanosoma brucei 72 hour study; format: functional, organism-based; design: scale not given: in the data most compounds retested in dose-response had high values; conditions: 30.3 µM; […]
Hit rate of the full screen: of about 66,000 compounds, about 960 (1.5%) showed an effect of 50% or more. Only a selection was taken, and strong results are over-represented in it overall.
Reported endpoint: Percent Effect (%)
Your answer should be a plain number; it is taken to be in %.

Examples with their reported Percent Effect follow.
Molecule | Percent Effect [%]
COC1CCN(C(=O)C2CCCC2)CC(=O)N(C)c2ccccc21 (stereo unspecified) | -34.54
O=C([C@H]1C[C@@H]2CN(c3ncc(F)cn3)C[C@H]1O2)N1CCCC1 | -1.674
CNC(=O)[C@H]1C[C@@H]2CN(C(=O)c3ccccn3)C[C@@H]2N1S(C)(=O)=O.O=C(O)C(F)(F)F | -16.02
CC(Nc1nc2c(cnn2C)c(=O)[nH]1)c1ccc(F)cc1 (stereo unspecified) | -23.37
Cc1cc(NCCN)nc2ccccc12.O=[N+]([O-])O | -46.24

## Input Need Percent Effect of COCCN1CCC(CNC(=O)Nc2ccc(-c3ccccc3)cc2)C1 (stereo unspecified) , thanks.
## Output 100.6

## Input Can you look up the measured Percent Effect of O=C(Cc1cccc(F)c1)N1C[C@H]2CN(Cc3ccccn3)C[C@H]2C1.O=C(O)C(F)(F)F for me?
## Output -6.988

## Input # Percent Effect lookup, item O=C(Nc1ccccc1)N1C(CN2CCOCC2)[C@]2(O)CC[C@H]1CC2 (stereo partly specified)
## Output 6.609

## Input Fill in the blank: the reported Percent Effect of CN(CC(=O)NC(Cc1ccccc1)C1CCCC1)S(C)(=O)=O (stereo unspecified) is ____.
## Output 62.9

## Input I am curious: what Percent Effect value has been reported for Cc1ccc(CN2CCc3ncc(CNC(=O)C4CCC4)n3CC2)o1.O=C(O)C(F)(F)F ?
## Output -36.54

## Input Which value of Percent Effect has been reported for C[C@@]1(O)CCN(Cc2cc[nH]n2)C[C@H]1Oc1cccc(F)c1 in the records?
## Output 13.98
